Where these numbers come from: paper PMC13494018

Target: CD276, Q5ZPR3
Sequence (Q5ZPR3 whole entry): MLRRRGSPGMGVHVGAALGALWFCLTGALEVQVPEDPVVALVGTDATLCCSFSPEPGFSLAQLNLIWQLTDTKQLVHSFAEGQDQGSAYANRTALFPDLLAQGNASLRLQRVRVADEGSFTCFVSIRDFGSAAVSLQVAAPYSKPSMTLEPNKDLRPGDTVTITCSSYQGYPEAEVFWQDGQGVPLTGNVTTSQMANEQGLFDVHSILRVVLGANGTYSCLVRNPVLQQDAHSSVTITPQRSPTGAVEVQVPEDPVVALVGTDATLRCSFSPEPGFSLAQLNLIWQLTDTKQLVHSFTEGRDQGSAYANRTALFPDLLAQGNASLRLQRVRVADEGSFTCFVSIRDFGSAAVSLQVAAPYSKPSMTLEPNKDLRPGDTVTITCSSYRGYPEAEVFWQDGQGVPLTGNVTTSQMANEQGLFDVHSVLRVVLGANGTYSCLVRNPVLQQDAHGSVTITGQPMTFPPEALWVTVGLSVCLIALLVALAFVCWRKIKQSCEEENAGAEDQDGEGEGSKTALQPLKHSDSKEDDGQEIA
ENDPOINT NAME: binding in a display sort

BINDER	READING
d6r1_design_ppi_377_dldesign_0_cycle1_af2pred (protein) MEDEELAEKIRERAKEAIAQIRASSPEQAALLAGTLVAEFGEWARSGTPEVAAVAHEEMNRVTGEAAKVIA	not found (inactive)
d6r1_design_ppi_243_dldesign_0_cycle1_af2pred (protein) AEAVARAARDARAQIELAEALLKQGLAAAKTDPAQALLAYNAALAAARSAVRIAARAPEVLEEARAALAAVEAAKAKVQAQAA	not found (inactive)
d1r7_design_ppi_322_dldesign_0_cycle0_af2pred (protein) MTLEDLKRAAKAYLHGLANLAAGLGLEELAKKLREAAANVDDAKALKEGAELAKELAALSTPEAAEFAKLAAEVAKAAAKAVEAA	not found (inactive)
d1r7_design_ppi_393_dldesign_0_cycle1_af2pred (protein) EKLHPQAVAALKAQARNAAKLDPETMKKMAENVAKLVTLLSPAKAKEAEKVKELLLKAAEAKKKGAGEETLKALVEEAAKVIAE	not found (inactive)

Need binding in a display sort of d1r8_design_ppi_843_dldesign_0_cycle0_af2pred (protein) AEEARRAEAAARLEAAVAAGQATLVEVNKAAAATGDAALAEAALALSRAIAEGRRLGREGRYEEGAALVEAATKAAKATLAA , thanks.
not found (inactive)
